The values you see were collected from the Human Domainome abundance scans (Beltran et al. 2025).

Please go through the items and note down their abundance fitness.
B1: Tyrosine-protein kinase Lck, residues 63 to 120; numbered along this chain, P06239 (parent)
chain: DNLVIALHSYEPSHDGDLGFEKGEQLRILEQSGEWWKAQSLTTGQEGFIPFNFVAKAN

variants of: B1; test: abundance fitness (aPCA) (normalised: wild type 0, dead -1); higher = more abundant; growth selection in yeast, the domain comes from the species named; settings: Homo sapiens

Item under review: A55M . Reported abundance fitness?
-0.12

Would you mind doing E21S as well?
-0.042

Another variant to check: D15P
-0.075

What about Y10D ?
-0.511

Try this variant too: N2F
0.034

Consider next the variant G19C in the same way.
-0.16
